- System: HL-60(TB)
- Assay name: Growth inhibition of human HL-60(TB) cells after 48 hrs
- Assay type: functional
- Settings: HL-60, 48 h
Measured TGI, listed per entry.

These recorded examples may help you get a feel for the data.
>  <Smiles representation>
NNC(=O)COc1nc(-c2cccs2)nc2ccc(I)cc12

>  <Assay system>
HL-60(TB)

>  <Observed value>
> 100 µM

$$$$
>  <Smiles representation>
NS(=O)(=O)c1ccc(CNc2nc(-c3cccs3)nc3ccc(I)cc23)cc1

>  <Assay system>
HL-60(TB)

>  <Observed value>
> 100 µM

$$$$
>  <Smiles representation>
O=c1c2cc(I)ccc2nc(-c2cccs2)n1Nc1ccccc1

>  <Assay system>
HL-60(TB)

>  <Observed value>
> 100 µM

$$$$

Switching to the query record.
What does the data say about its TGI? Entry: O=C(Nn1c(-c2cccs2)nc2ccc(I)cc2c1=O)c1ccccc1 > 100 µM

====

- Assay name: Growth inhibition of human ovarian cancer cells after 48 hrs
- Type: functional
- Settings: Cancer cell lines
Measured GI50, listed per entry for reference.
Reply numerically in µM, unit not repeated.

>  <Smiles representation>
NNC(=O)COc1nc(-c2cccs2)nc2ccc(I)cc12

>  <Recorded metric>
GI50

>  <Observed value>
22.3

$$$$

GI50 lookup needed for O=C(Nc1ccc(I)cc1C(=O)Nc1ccc(O)cc1)c1cccs1 , thanks. 13.3

Recorded GI50 of NS(=O)(=O)c1ccc(CNc2nc(-c3cccs3)nc3ccc(I)cc23)cc1 , please. 15.7

Tell me the measured GI50 of O=c1c2cc(I)ccc2nc(-c2cccs2)n1NC(=S)Nc1ccccc1 , please. 21.5

Recorded GI50 of NS(=O)(=O)c1ccc(-n2c(-c3cccs3)nc3ccc(I)cc3c2=O)cc1 , please. 23.5

What value of GI50 has been recorded for this entry: CCSc1nc(-c2cccs2)nc2ccc(I)cc12 85.2

Returns the measured GI50 for the input compound. Input: O=C(Nn1c(-c2cccs2)nc2ccc(I)cc2c1=O)c1ccccc1 27.4

What does the data say about its GI50? Entry: O=S(=O)(Nc1nccs1)c1ccc(Nc2nc(-c3cccs3)nc3ccc(I)cc23)cc1 25.8
